Counter-ions that a name gives are not always drawn.
// reported melting point for each item listed

Previously resolved entries follow.
Query block: Consider the compound CN(C)CC(=O)OCC1CC(c2ccc(-c3ccc(N4C[C@H](Cn5ccnn5)OC4=O)cc3F)cn2)=NO1 (stereo partly drawn) (as salt: hydrochloride) . State its measured melting point.
Result block: 175 to 180 °C

Query block: Consider the compound O=C(OC[C@@H]1CC(c2ccc(-c3ccc(N4C[C@H](Cn5ccnn5)OC4=O)cc3F)cn2)=NO1)c1cncnc1 . State its measured melting point.
Result block: 253 to 264 °C

From here, focus on the item given below.
Query block: Consider the compound C[N+](C)(C)CCOC(=O)OC[C@@H]1CC(c2ccc(-c3ccc(N4C[C@H](Cn5ccnn5)OC4=O)cc3F)cn2)=NO1 (as salt: chloride) . State its measured melting point.
Result block: 180 to 190 °C

This collection of values is drawn from patent US7192974B2.
